PROTOCOL_CONDITIONS: in ethyl acetate, 308.2 K
REPORTED_METRIC: solubility (mole fraction)
Please give only the number in your answer, with no unit.

Give the measured solubility (mole fraction) of CC(=O)Oc1ccc(C2CC(=O)c3c(OC(C)=O)cc(OC(C)=O)cc3O2)cc1 (stereo unspecified) .
0.0714

----------
PROTOCOL_CONDITIONS: in n-propanol, 318.2 K
REPORTED_METRIC: solubility (mole fraction)
Please give only the number in your answer, with no unit.

Give the measured solubility (mole fraction) of CC(=O)Oc1ccc(C2CC(=O)c3c(OC(C)=O)cc(OC(C)=O)cc3O2)cc1 (stereo unspecified) .
0.00245

----------
PROTOCOL_CONDITIONS: in THF, 288.2 K
REPORTED_METRIC: solubility (mole fraction)

Give the measured solubility (mole fraction) of CC(=O)Oc1ccc(C2CC(=O)c3c(OC(C)=O)cc(OC(C)=O)cc3O2)cc1 (stereo unspecified) .
0.0483

----------
PROTOCOL_CONDITIONS: in n-hexanol, 278.2 K
REPORTED_METRIC: solubility (mole fraction)
Please give only the number in your answer, with no unit.

Give the measured solubility (mole fraction) of CC(=O)Oc1ccc(C2CC(=O)c3c(OC(C)=O)cc(OC(C)=O)cc3O2)cc1 (stereo unspecified) .
1.8e-05

----------
PROTOCOL_CONDITIONS: in n-butanol, 308.2 K
REPORTED_METRIC: solubility (mole fraction)
Please give only the number in your answer, with no unit.

Give the measured solubility (mole fraction) of CC(=O)Oc1ccc(C2CC(=O)c3c(OC(C)=O)cc(OC(C)=O)cc3O2)cc1 (stereo unspecified) .
0.000752

----------
PROTOCOL_CONDITIONS: in methanol, 288.2 K
REPORTED_METRIC: solubility (mole fraction)
Please give only the number in your answer, with no unit.

Give the measured solubility (mole fraction) of CC(=O)Oc1ccc(C2CC(=O)c3c(OC(C)=O)cc(OC(C)=O)cc3O2)cc1 (stereo unspecified) .
0.00155

----------
PROTOCOL_CONDITIONS: in ethanol, 288.2 K
REPORTED_METRIC: solubility (mole fraction)
Please give only the number in your answer, with no unit.

Give the measured solubility (mole fraction) of CC(=O)Oc1ccc(C2CC(=O)c3c(OC(C)=O)cc(OC(C)=O)cc3O2)cc1 (stereo unspecified) .
0.000931

----------
PROTOCOL_CONDITIONS: in 2-butoxyethanol, 308.2 K
REPORTED_METRIC: solubility (mole fraction)
Please give only the number in your answer, with no unit.

Give the measured solubility (mole fraction) of CC(=O)Oc1ccc(C2CC(=O)c3c(OC(C)=O)cc(OC(C)=O)cc3O2)cc1 (stereo unspecified) .
0.00476

----------
PROTOCOL_CONDITIONS: in n-hexanol, 298.2 K
REPORTED_METRIC: solubility (mole fraction)

Give the measured solubility (mole fraction) of CC(=O)Oc1ccc(C2CC(=O)c3c(OC(C)=O)cc(OC(C)=O)cc3O2)cc1 (stereo unspecified) .
3e-05

----------
PROTOCOL_CONDITIONS: in n-pentanol, 298.2 K
REPORTED_METRIC: solubility (mole fraction)
Please give only the number in your answer, with no unit.

Give the measured solubility (mole fraction) of CC(=O)Oc1ccc(C2CC(=O)c3c(OC(C)=O)cc(OC(C)=O)cc3O2)cc1 (stereo unspecified) .
0.000556

Measured values drawn from BigSolDB 2.1 for this set.
